Examples of compounds with documented IC50 follow.
# System Name: human SGLT2 protein modified to have LeuGluSerArgGlyProVal added to the carboxy-terminal final residue (Homo sapiens)
# Assay Method Text: Inhibition test for sodium-dependent sugar uptake in CHO-K1 cells stably expressing human SGLT2, Method A
# Experimental Setup: uptake 37° C., 60 minutes, read-out: IC50 for hSGLT2 Method A

COc1cc(C(C)C)c(Cc2ccc(/C=C/C(C)(C)C(=O)NC(C)(C)C(=O)NCCN(C)C)cc2)cc1[C@@H]1O[C@H](CO)[C@@H](O)[C@H](O)[C@H]1O [Example 15-2] ... 1280 nM
COc1cc(C(C)C)c(Cc2ccc(/C=C/C(C)(C)C(=O)NC(C)(C)C(=O)N3CCNCC3)cc2)cc1[C@@H]1O[C@H](CO)[C@@H](O)[C@H](O)[C@H]1O [Example 16-2] ... 1020 nM
COc1cc(C(C)C)c(Cc2ccc(/C=C/C(C)(C)C(=O)NC(C)(C)C(=O)N3CCN(C)CC3)cc2C)cc1[C@@H]1O[C@H](CO)[C@@H](O)[C@H](O)[C@H]1O [Example 10-2] ... 14900 nM
COc1cc(C(C)C)c(Cc2ccc(/C=C/C(C)(C)C(=O)NC(C)(C)C(=O)NCCN)cc2C)cc1[C@@H]1O[C@H](CO)[C@@H](O)[C@H](O)[C@H]1O [Example 8-3] ... 15700 nM

Please look at the following compound next.
Req: What measured IC50 goes with COc1cc(C(C)C)c(Cc2ccc(/C=C/C(C)(C)C(=O)NC(C)(C)C(=O)NC3CCNCC3)cc2C)cc1[C@@H]1O[C@H](CO)[C@@H](O)[C@H](O)[C@H]1O [Example 14-2] ?
Resp: 2390 nM

* * *

Examples of compounds with documented pIC50 follow.
# System Name: human SGLT1 (Homo sapiens)
# Sequence (P13866 whole entry): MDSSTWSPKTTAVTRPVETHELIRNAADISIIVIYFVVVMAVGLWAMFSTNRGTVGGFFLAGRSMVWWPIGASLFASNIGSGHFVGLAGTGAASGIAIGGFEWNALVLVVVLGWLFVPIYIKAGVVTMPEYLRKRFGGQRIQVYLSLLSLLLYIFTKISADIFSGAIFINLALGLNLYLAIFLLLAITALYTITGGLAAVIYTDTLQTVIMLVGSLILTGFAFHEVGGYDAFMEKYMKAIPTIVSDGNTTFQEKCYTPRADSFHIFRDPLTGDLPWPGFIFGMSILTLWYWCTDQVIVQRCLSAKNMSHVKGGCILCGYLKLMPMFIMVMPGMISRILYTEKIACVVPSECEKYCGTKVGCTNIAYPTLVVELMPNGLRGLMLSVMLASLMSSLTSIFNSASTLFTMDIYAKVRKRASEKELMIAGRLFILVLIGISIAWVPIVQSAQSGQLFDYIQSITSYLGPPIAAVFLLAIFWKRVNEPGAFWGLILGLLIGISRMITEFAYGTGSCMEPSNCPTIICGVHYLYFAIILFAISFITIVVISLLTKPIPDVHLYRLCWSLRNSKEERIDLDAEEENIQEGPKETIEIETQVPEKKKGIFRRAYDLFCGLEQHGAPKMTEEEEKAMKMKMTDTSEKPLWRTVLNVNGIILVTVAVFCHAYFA
# Assay Method Text: Inhibition test for sodium-dependent sugar uptake in CHO-K1 cells stably expressing human SGLT1
# Experimental Setup: [14C]methyl α-D-glucopyranoside uptake, 37° C., 30 minutes, read-out: IC50 for hSGLT1
# pIC50: negative log10 of molar concentration; output just the value

COc1cc(C(C)C)c(Cc2ccc(/C=C/C(C)(C)C(=O)NC(C)(C)C(=O)N3CCNCC3)cc2C)cc1[C@@H]1O[C@H](CO)[C@@H](O)[C@H](O)[C@H]1O ... 7.47
Cc1cc(/C=C/C(C)(C)C(=O)NC(C)(C)C(=O)N2CCNCC2)ccc1Cc1cc([C@@H]2O[C@H](CO)[C@@H](O)[C@H](O)[C@H]2O)c(O)cc1C(C)C ... 7.52

Req: Kindly state the measured pIC50 obtained for Cc1cc(/C=C/C(C)(C)C(=O)NC(C)(C)C(=O)NCCN(C)C)ccc1Cc1cc([C@@H]2O[C@H](CO)[C@@H](O)[C@H](O)[C@H]2O)c(O)cc1C(C)C with human SGLT1 (Homo sapiens).
Resp: 7.46

Req: Kindly state the measured pIC50 obtained for Cc1cc(/C=C/C(C)(C)C(=O)NC(C)(C)C(=O)N2CCN(C)CC2)ccc1Cc1cc([C@@H]2O[C@H](CO)[C@@H](O)[C@H](O)[C@H]2O)c(O)cc1C(C)C with human SGLT1 (Homo sapiens).
Resp: 7.46

Req: Kindly state the measured pIC50 obtained for COc1cc(C(C)C)c(Cc2ccc(/C=C/C(C)(C)C(=O)NC(C)(C)C(=O)NC3CCNCC3)cc2C)cc1[C@@H]1O[C@H](CO)[C@@H](O)[C@H](O)[C@H]1O with human SGLT1 (Homo sapiens).
Resp: 7.14

* * *

# System Name: UniProtKB P31639
# Assay Method Text: Inhibition test for sodium-dependent sugar uptake in CHO-K1 cells stably expressing human SGLT2, Method B
# Experimental Setup: uptake 37° C., 60 minutes, read-out: IC50 for hSGLT2 Method B
Reported Endpoint: pIC50
# pIC50: negative log10 of molar concentration; output just the value

Cc1cc(/C=C/C(C)(C)C(=O)NC(C)(C)C(=O)N2CCNCC2)ccc1Cc1cc([C@@H]2O[C@H](CO)[C@@H](O)[C@H](O)[C@H]2O)c(O)cc1C(C)C ... 7.55
Cc1cc(/C=C/C(C)(C)C(=O)NC(C)(C)C(=O)N2CCN(C)CC2)ccc1Cc1cc([C@@H]2O[C@H](CO)[C@@H](O)[C@H](O)[C@H]2O)c(O)cc1C(C)C ... 7.09
COc1cc(C(C)C)c(Cc2ccc(/C=C/C(C)(C)C(=O)NC(C)(C)C(=O)N3CCN(C)CC3)cc2)cc1[C@@H]1O[C@H](CO)[C@@H](O)[C@H](O)[C@H]1O ... 7.59
COc1cc(C(C)C)c(Cc2ccc(/C=C/C(C)(C)C(=O)NC(C)(C)C(=O)N3CCC(N(C)C)CC3)cc2C)cc1[C@@H]1O[C@H](CO)[C@@H](O)[C@H](O)[C@H]1O ... 6.95
CCN1CCN(C(=O)C(C)(C)NC(=O)C(C)(C)/C=C/c2ccc(Cc3cc([C@@H]4O[C@H](CO)[C@@H](O)[C@H](O)[C@H]4O)c(OC)cc3C(C)C)c(C)c2)CC1 ... 6.26
COc1cc(C(C)C)c(Cc2ccc(/C=C/C(C)(C)C(=O)NC(C)(C)C(=O)N3CCNCC3)cc2)cc1[C@@H]1O[C@H](CO)[C@@H](O)[C@H](O)[C@H]1O ... 7.77
COc1cc(C(C)C)c(Cc2ccc(/C=C/C(C)(C)C(=O)NC(C)(C)C(=O)NC3CCNCC3)cc2C)cc1[C@@H]1O[C@H](CO)[C@@H](O)[C@H](O)[C@H]1O ... 7.09
Cc1cc(/C=C/C(C)(C)C(=O)NC(C)(C)C(=O)NCC(C)(C)N)ccc1Cc1cc([C@@H]2O[C@H](CO)[C@@H](O)[C@H](O)[C@H]2O)c(O)cc1C(C)C ... 7.19

Req: What measured pIC50 goes with COc1cc(C(C)C)c(Cc2ccc(/C=C/C(C)(C)C(=O)NC(C)(C)C(=O)NCCN(C)C)cc2)cc1[C@@H]1O[C@H](CO)[C@@H](O)[C@H](O)[C@H]1O ?
Resp: 7.70

Req: What measured pIC50 goes with COc1cc(C(C)C)c(Cc2ccc(/C=C/C(C)(C)C(=O)NC(C)(C)C(=O)NCCN)cc2C)cc1[C@@H]1O[C@H](CO)[C@@H](O)[C@H](O)[C@H]1O ?
Resp: 6.32

Req: What measured pIC50 goes with COc1cc(C(C)C)c(Cc2ccc(/C=C/C(C)(C)C(=O)NC(C)(C)C(=O)NCC(C)(C)N)cc2C)cc1[C@@H]1O[C@H](CO)[C@@H](O)[C@H](O)[C@H]1O ?
Resp: 6.49

Req: What measured pIC50 goes with CCN1CCN(C(=O)C(C)(C)NC(=O)C(C)(C)/C=C/c2ccc(Cc3cc([C@@H]4O[C@H](CO)[C@@H](O)[C@H](O)[C@H]4O)c(O)cc3C(C)C)c(C)c2)CC1 ?
Resp: 7.12

Req: What measured pIC50 goes with Cc1cc(/C=C/C(C)(C)C(=O)NC(C)(C)C(=O)N2CCC(N(C)C)CC2)ccc1Cc1cc([C@@H]2O[C@H](CO)[C@@H](O)[C@H](O)[C@H]2O)c(O)cc1C(C)C ?
Resp: 7.52

* * *

Examples of compounds with documented IC50 follow.
# System Name: human SGLT2 protein modified to have LeuGluSerArgGlyProVal added to the carboxy-terminal final residue (Homo sapiens, UniProt P31639)
# Sequence (P31639 with tags, fused parts or gaps): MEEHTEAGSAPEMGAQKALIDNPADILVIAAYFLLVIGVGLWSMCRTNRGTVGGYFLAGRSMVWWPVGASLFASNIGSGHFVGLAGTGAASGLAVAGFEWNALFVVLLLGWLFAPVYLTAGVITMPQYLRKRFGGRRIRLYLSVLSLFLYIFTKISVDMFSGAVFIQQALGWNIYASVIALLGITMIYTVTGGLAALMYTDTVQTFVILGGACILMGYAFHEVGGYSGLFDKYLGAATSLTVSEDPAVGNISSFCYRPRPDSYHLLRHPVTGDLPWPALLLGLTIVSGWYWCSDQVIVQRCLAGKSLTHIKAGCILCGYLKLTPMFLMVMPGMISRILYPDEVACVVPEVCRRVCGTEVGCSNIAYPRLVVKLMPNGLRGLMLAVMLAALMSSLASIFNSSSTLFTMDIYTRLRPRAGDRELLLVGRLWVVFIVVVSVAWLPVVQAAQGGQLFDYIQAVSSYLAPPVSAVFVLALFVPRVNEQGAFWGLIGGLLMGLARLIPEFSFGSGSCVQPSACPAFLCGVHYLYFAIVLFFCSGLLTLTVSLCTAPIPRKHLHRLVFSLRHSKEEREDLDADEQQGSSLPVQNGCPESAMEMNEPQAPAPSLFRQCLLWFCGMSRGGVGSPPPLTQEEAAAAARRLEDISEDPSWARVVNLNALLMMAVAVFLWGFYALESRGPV
# Assay Method Text: Inhibition test for sodium-dependent sugar uptake in CHO-K1 cells stably expressing human SGLT2, Method A
# Experimental Setup: uptake 37° C., 60 minutes, read-out: IC50 for hSGLT2 Method A
// return numeric value only (unit: nM, not printed)

Example entries begin here.
Cc1cc(/C=C/C(C)(C)C(=O)NC(C)(C)C(=O)N2CCNCC2)ccc1Cc1cc([C@@H]2O[C@H](CO)[C@@H](O)[C@H](O)[C@H]2O)c(O)cc1C(C)C ... 971
COc1cc(C(C)C)c(Cc2ccc(/C=C/C(C)(C)C(=O)NC(C)(C)C(=O)NCCN(C)C)cc2C)cc1[C@@H]1O[C@H](CO)[C@@H](O)[C@H](O)[C@H]1O ... 11100
COc1cc(C(C)C)c(Cc2ccc(/C=C/C(C)(C)C(=O)NC(C)(C)C(=O)N3CCC(N(C)C)CC3)cc2C)cc1[C@@H]1O[C@H](CO)[C@@H](O)[C@H](O)[C@H]1O ... 4950
Cc1cc(/C=C/C(C)(C)C(=O)NC(C)(C)C(=O)N2CCN(C)CC2)ccc1Cc1cc([C@@H]2O[C@H](CO)[C@@H](O)[C@H](O)[C@H]2O)c(O)cc1C(C)C ... 1720
COc1cc(C(C)C)c(Cc2ccc(/C=C/C(C)(C)C(=O)NC(C)(C)C(=O)N3CCN(C)CC3)cc2)cc1[C@@H]1O[C@H](CO)[C@@H](O)[C@H](O)[C@H]1O ... 979
CCN1CCN(C(=O)C(C)(C)NC(=O)C(C)(C)/C=C/c2ccc(Cc3cc([C@@H]4O[C@H](CO)[C@@H](O)[C@H](O)[C@H]4O)c(OC)cc3C(C)C)c(C)c2)CC1 ... 9750
Cc1cc(/C=C/C(C)(C)C(=O)NC(C)(C)C(=O)NCC(C)(C)N)ccc1Cc1cc([C@@H]2O[C@H](CO)[C@@H](O)[C@H](O)[C@H]2O)c(O)cc1C(C)C ... 3110
COc1cc(C(C)C)c(Cc2ccc(/C=C/C(C)(C)C(=O)NC(C)(C)C(=O)N3CCNCC3)cc2C)cc1[C@@H]1O[C@H](CO)[C@@H](O)[C@H](O)[C@H]1O ... 7230
Cc1cc(/C=C/C(C)(C)C(=O)NC(C)(C)C(=O)N2CCC(N(C)C)CC2)ccc1Cc1cc([C@@H]2O[C@H](CO)[C@@H](O)[C@H](O)[C@H]2O)c(O)cc1C(C)C ... 802
COc1cc(C(C)C)c(Cc2ccc(/C=C/C(C)(C)C(=O)NC(C)(C)C(=O)NCC(C)(C)N)cc2C)cc1[C@@H]1O[C@H](CO)[C@@H](O)[C@H](O)[C@H]1O ... 14800

Req: What measured IC50 goes with Cc1cc(/C=C/C(C)(C)C(=O)NC(C)(C)C(=O)NCCN(C)C)ccc1Cc1cc([C@@H]2O[C@H](CO)[C@@H](O)[C@H](O)[C@H]2O)c(O)cc1C(C)C ?
Resp: 2690

Req: What measured IC50 goes with CCN1CCN(C(=O)C(C)(C)NC(=O)C(C)(C)/C=C/c2ccc(Cc3cc([C@@H]4O[C@H](CO)[C@@H](O)[C@H](O)[C@H]4O)c(O)cc3C(C)C)c(C)c2)CC1 ?
Resp: 1640
